# Tested on: KM12 colon
# ASSAY_PROCEDURE: NCI-60 one-dose screen, 48 h
# CONDITION: 10 µM unless noted
This is part of a sample that, as a whole, favours compounds with a hit. Of some 83,000 tested, about 20% had one in any assay. Activity calls are given as the source filed them. How the source made its calls: active means growth percent below 10; inactive means the rest.
Your response should consist of one outcome taken from 1 for active, -1 for inactive

Recorded results for 2 compounds are shown here.
- COMPOUND: "COc1ccc(/C=C(\\C#N)c2ccccc2)cc1"
  CATEGORY_LABEL: -1
- COMPOUND: "C[N+]1(CCc2ccccc2)CCC(CCC2CC[N+](C)(CCc3ccccc3)CC2)CC1 (stereo unspecified)"
  CATEGORY_LABEL: -1

I'd appreciate the recorded outcome for CCCCCCCCCCSc1ncnc2nc[nH]c12 from this test. -1

I'd appreciate the recorded outcome for COc1ccc(/C=N/NC(=O)c2ccc(S(C)(=O)=O)cc2)cc1OC from this test. -1

I'd appreciate the recorded outcome for Clc1ncn[nH]1 from this test. -1

I'd appreciate the recorded outcome for N#CCCCCCn1c2ccccc2c2c3c(c4c5ccccc5[nH]c4c21)C(=O)N(O)C3=O from this test. 1
